# Experimental Target: hNav1.8 (Homo sapiens, UniProt Q9Y5Y9)
# Sequence (Q9Y5Y9 whole entry): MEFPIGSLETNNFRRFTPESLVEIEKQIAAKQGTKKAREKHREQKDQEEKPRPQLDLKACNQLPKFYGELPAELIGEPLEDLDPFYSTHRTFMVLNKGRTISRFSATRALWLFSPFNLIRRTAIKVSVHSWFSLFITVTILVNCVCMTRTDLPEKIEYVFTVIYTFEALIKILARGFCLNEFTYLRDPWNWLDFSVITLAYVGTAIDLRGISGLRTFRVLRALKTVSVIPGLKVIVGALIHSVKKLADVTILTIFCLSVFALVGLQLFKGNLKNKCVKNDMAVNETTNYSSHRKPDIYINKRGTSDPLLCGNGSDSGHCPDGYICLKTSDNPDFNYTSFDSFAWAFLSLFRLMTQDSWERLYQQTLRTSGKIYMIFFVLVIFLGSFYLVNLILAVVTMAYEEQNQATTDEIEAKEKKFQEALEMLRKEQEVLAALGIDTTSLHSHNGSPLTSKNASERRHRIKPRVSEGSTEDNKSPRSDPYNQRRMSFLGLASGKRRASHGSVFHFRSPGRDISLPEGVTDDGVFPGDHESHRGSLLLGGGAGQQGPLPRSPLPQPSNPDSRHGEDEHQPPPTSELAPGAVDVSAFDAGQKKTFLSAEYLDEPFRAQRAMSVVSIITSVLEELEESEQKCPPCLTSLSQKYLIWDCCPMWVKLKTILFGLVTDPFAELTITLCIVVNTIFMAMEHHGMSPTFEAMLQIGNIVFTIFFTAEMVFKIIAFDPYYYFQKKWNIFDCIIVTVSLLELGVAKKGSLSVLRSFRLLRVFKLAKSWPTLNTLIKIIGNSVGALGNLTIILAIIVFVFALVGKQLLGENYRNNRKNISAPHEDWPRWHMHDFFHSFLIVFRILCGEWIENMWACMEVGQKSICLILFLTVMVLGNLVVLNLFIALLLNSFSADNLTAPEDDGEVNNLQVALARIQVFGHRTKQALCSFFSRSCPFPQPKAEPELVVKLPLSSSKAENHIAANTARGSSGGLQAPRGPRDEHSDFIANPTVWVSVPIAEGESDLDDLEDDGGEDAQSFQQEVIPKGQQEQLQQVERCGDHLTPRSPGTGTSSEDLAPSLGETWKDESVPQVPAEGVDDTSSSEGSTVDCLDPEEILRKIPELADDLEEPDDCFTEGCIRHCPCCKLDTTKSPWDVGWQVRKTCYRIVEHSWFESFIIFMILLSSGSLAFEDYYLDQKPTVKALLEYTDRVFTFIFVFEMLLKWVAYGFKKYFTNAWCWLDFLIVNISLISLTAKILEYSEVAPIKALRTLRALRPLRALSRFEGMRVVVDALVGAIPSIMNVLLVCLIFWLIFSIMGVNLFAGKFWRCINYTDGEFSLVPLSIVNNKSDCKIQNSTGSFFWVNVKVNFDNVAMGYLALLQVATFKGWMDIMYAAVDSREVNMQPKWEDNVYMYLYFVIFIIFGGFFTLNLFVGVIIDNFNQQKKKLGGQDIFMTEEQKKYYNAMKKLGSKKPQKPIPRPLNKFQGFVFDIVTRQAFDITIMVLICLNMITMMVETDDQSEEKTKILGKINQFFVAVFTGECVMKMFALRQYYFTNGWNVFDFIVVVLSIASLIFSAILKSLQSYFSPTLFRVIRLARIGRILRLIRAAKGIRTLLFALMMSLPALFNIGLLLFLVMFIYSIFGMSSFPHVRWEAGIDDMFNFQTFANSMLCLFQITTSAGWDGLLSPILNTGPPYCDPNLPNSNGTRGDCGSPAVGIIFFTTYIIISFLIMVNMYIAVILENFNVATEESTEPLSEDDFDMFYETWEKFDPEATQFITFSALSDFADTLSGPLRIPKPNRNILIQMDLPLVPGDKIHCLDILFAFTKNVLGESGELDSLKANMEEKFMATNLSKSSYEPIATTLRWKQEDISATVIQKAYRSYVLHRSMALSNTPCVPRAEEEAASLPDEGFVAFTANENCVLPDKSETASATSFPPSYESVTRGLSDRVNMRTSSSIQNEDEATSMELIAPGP
# Method Summary: Nav1.8 manual patch clamp test
# Assay Setup: CHO cells stably expressing human Nav1.8; whole-cell patch clamp, half-inactivated state; read-out: Inhibitory activity (IC50) against hNav1.8

Molecule | IC50
COc1c([C@H]2[C@H](C(=O)Nc3cccc(C(N)=O)c3)S[C@@](C)(C(F)(F)F)[C@H]2C)ccc(F)c1F [Mixture of compounds 28-2a and 28-2b] | < 0.1 nM
COc1c([C@H]2[C@H](C(=O)Nc3ccc(F)c(S(C)(=O)=O)c3)S[C@@](C)(C(F)(F)F)[C@H]2C)ccc(F)c1F | < 0.1 nM
COc1c([C@@H]2C[C@](C)(C(F)(F)F)S[C@H]2C(=O)Nc2ccnc(P(C)(C)=O)c2)ccc(F)c1F | < 1 nM
